Origin of the recorded values: PubChem BioAssay AID504834

assay: Primary qHTS for delayed death inhibitors of the malarial parasite plastid, 96 hour incubation; note: potency is the fitted concentration of half-maximal effect; settings: P. falciparum luciferase reporter growth; series mostly up to 28.7 µM
Out of some 320,000 compounds screened, about 22,000 (6.9%) were called active. Roughly 27% stayed inconclusive and do not appear here. This excerpt belongs to a sample that is enriched for actives.
measure-name: Potency

Completed entries (count: 8):
- CCOc1ccccc1NC(=O)C1CCC(CNc2c(N3CCOCC3)c(=O)c2=O)CC1 (stereo not given): inactive
- O=C(NCc1ccccc1Cl)C1CCC(CNc2c(N3CCCCC3)c(=O)c2=O)CC1 (stereo not given): 10.4 µM (active)
- CC1=C(C(=O)OCC2CCCCC2)C(c2ccc(F)cc2)NC(=O)N1 (stereo not given): inactive
- CC(NC(=O)C1CCC(CNc2c(N3CCOCC3)c(=O)c2=O)CC1)c1ccccc1 (stereo not given): 13.1 µM (active)
- O=C(CN(c1ccc2c(c1)OCCO2)S(=O)(=O)c1ccccc1)Nc1ccc2c(c1)OCO2: inactive
- COc1ccc(NC(=O)C2CCC(CNc3c(N4CCCCC4)c(=O)c3=O)CC2)c(OC)c1 (stereo not given): inactive
- CCCCCn1c(=O)[nH]c2cc(C(=O)NCCCN3CCCCC3C)ccc2c1=O (stereo not given): inactive
- O=C(NCCCc1ccccc1)C1CCC(CNc2c(N3CCCCC3)c(=O)c2=O)CC1 (stereo not given): inactive

Give the measured Potency for "O=C(OCc1nnc(-c2ccccc2)o1)c1cc(=O)[nH]c2ccccc12"
inactive

Give the measured Potency for "NS(=O)(=O)c1ccc(CCNC(=O)CNC(=O)Cc2ccccc2)cc1"
inactive

====

assay: Primary qHTS for delayed death inhibitors of the malarial parasite plastid, 96 hour incubation; details: P. falciparum luciferase reporter growth; series mostly up to 28.7 µM
Hit rate of the full screen: of about 320,000 compounds, about 22,000 (6.9%) were called active. Another 27% or so got no clear call; they are omitted. The call rests on the fitted dose curve; in most records, active means well fitted inhibition curve with a large enough effect; inconclusive means small, poorly fitted or top-dose-only effect, or another doubt; inactive means no such curve, though single readings can be large or run the other way. The entries come from a sample that favours actives as a whole.
Pick one and only one: 1 for active, 0 for inactive

• COc1nc(Oc2ccc(=O)n(C)n2)nc(N(C)C)n1 = 1
• Cc1ccccc1Cn1c2ccccc2c2cnn(CC(=O)NCc3ccco3)c(=O)c21 = 0
• CN(CC(=O)NCC(c1ccccc1)N1CCCC1)S(=O)(=O)c1ccc(Cl)cc1 (configuration not stated) = 1

Query: recorded result category for "Cn1c(SCC(=O)OC2CCCCC2)nnc1-c1ccc(S(=O)(=O)N2CCCC2)cc1" in this test
1

Query: recorded result category for "CN(CC(=O)NCCc1ccccn1)S(=O)(=O)c1ccc(Cl)cc1" in this test
0

====

Assay: Primary qHTS for delayed death inhibitors of the malarial parasite plastid, 96 hour incubation; note: potency is the fitted concentration of half-maximal effect
Conditions: P. falciparum luciferase reporter growth; series mostly up to 28.7 µM
Excerpt: The goal of this screen is to discover new antimalarial compounds that act by inhibiting the development of the apicoplast in the malarial parasite Plasmodium falciparum. […] We have developed a cell-based assay that measures parasite growth based on the expression of an integrated copy of a firefly luciferase reporter. […] Growth inhibition is detected by a decrease in luciferase activity. […]
Among all 320,000 compounds or so, about 22,000 (6.9%) were called active. Not shown: some 27% with an inconclusive outcome. The entries come from a sample that favours actives as a whole.
measure-name: Potency

Completed entries (count: 4):
• COCCOC(=O)c1[nH]c2c(c1C)C(=O)CC(c1ccc(OC)cc1)C2 (stereo not given) = inactive
• CCCOC(=O)c1[nH]c2c(c1C)C(=O)CC(c1cccs1)C2 (stereo not given) = 9.28 µM (active)
• CCCOC(=O)c1[nH]c2c(c1C)C(=O)CC(c1cc(OC)c(OC)c(OC)c1)C2 (stereo not given) = 11.7 µM (active)
• CCCCOC(=O)c1[nH]c(C)c(C(=O)OC)c1C = inactive

Note: attention shifts to another entry.
Give the measured Potency for CCOC(=O)C1=C(N)N2C(=O)C(C)SC2=C(C(=O)OCC)C1c1cc(OC)c(OC)c(OC)c1 (stereo not given)
inactive
